Molecular target: Transient receptor potential cation channel subfamily V member 1 (Homo sapiens, UniProt Q8NER1)
Sequence (Q8NER1 whole entry): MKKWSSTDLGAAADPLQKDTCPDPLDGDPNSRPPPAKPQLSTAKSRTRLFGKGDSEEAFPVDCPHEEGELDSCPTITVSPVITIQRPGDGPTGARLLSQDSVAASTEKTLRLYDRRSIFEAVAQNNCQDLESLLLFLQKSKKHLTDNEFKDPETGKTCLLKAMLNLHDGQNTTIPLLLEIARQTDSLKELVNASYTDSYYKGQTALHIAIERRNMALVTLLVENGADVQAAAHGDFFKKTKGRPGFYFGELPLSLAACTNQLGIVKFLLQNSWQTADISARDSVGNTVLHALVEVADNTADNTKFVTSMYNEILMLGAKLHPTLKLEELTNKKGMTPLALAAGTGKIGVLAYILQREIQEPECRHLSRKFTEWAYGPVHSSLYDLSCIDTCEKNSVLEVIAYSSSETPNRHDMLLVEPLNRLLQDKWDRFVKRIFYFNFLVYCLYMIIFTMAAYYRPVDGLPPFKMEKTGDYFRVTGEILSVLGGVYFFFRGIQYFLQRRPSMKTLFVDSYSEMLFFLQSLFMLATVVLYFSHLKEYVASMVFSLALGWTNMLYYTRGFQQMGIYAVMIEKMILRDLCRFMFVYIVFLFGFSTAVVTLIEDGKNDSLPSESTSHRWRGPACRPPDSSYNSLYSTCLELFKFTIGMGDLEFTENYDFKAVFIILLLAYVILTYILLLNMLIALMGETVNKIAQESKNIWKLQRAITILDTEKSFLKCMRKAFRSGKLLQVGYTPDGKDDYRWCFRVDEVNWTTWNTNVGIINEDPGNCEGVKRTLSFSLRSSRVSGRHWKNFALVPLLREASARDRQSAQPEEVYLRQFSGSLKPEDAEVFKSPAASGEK
Assay: Displacement of [3H]RTX from human TRPV1 expressed in CHO cells after 60 mins by liquid scintillation counting analysis
Format: cell-based
Consider the cut-off 20 nM. If the recorded Ki is strictly smaller, the label is met; if not, the label is not met.

| compound | assigned_category |
| --- | --- |
| CC(C)(C)C(=O)OC[C@@H](CNC(=S)NCc1ccc(NS(C)(=O)=O)c(F)c1)Cc1ccc(C(C)(C)C)cc1 | met |
| CC(C)(C)C(=O)OC[C@H](CNC(=S)NCc1ccc(NS(C)(=O)=O)c(F)c1)Cc1ccc(C(C)(C)C)cc1 | not met |
| COc1cc(CNC(=S)NC[C@H](COC(=O)C(C)(C)C)Cc2ccc(C(C)(C)C)cc2)ccc1O | met |
| COc1cc(CNC(=S)NC[C@@H](COC(=O)C(C)(C)C)Cc2ccc(C(C)(C)C)cc2)ccc1O | met |
| CC(C)(C)C(=O)OCC(CNC(=S)NCc1ccc(NS(C)(=O)=O)c(F)c1)Cc1ccc(C(C)(C)C)cc1 (racemic) | not met |
| COc1cc(CNC(=S)NCC(COC(=O)C(C)(C)C)Cc2ccc(C(C)(C)C)cc2)ccc1O (racemic) | met |

---

Listed compounds paired with reported Ki
Target: UniProt Q8NER1
Experiment: Antagonist activity at human TRPV1 expressed in CHO cells assessed as inhibition of RTX-induced 45Ca2+ uptake after 20 mins by liquid scintillation counting analysis
Type: cell-based
Conditions: read-out: Ki

| compound | target_desc | Ki |
| --- | --- | --- |
| CC(C)(C)C(=O)OC[C@@H](CNC(=S)NCc1ccc(NS(C)(=O)=O)c(F)c1)Cc1ccc(C(C)(C)C)cc1 | UniProt Q8NER1 | 94 nM |
| CC(C)(C)C(=O)OCC(CNC(=S)NCc1ccc(NS(C)(=O)=O)c(F)c1)Cc1ccc(C(C)(C)C)cc1 (racemic) | UniProt Q8NER1 | 122 nM |
| CC(C)(C)C(=O)OC[C@H](CNC(=S)NCc1ccc(NS(C)(=O)=O)c(F)c1)Cc1ccc(C(C)(C)C)cc1 | UniProt Q8NER1 | 161 nM |

---

Listed compounds paired with reported EC50
Biological target: UniProt:Q8NER1
Test: Agonist activity at human TRPV1 expressed in CHO cells assessed as 45Ca2+ uptake after 20 mins by liquid scintillation counting analysis
Type: cell-based
Conditions: read-out: EC50

| compound | EC50, nM |
| --- | --- |
| COc1cc(CNC(=S)NC[C@H](COC(=O)C(C)(C)C)Cc2ccc(C(C)(C)C)cc2)ccc1O | 0.99 |
| COc1cc(CNC(=S)NC[C@@H](COC(=O)C(C)(C)C)Cc2ccc(C(C)(C)C)cc2)ccc1O | 9.55 |
| COc1cc(CNC(=S)NCC(COC(=O)C(C)(C)C)Cc2ccc(C(C)(C)C)cc2)ccc1O (racemic) | 1.34 |
